All figures here come from patent US20260224688A1.

- EXPERIMENT_DESCRIPTION: Dynamic light scattering of lipid nanoparticles (size, PDI)
- Assay type: physicochemical
- COND: LNP with cationic lipid CL-B
- Method: Lipid nanoparticle formulations 3 were prepared by Process A at a molar ratio of 40:1.5:30:28.5 (Cationic Lipid: DMG-PEG2000: Cholesterol: Helper Lipid) with the cationic lipids and helper lipids disclosed in the tables below. The Polydispersity Index (Pdl) of lipid nanoparticles can be determined by diluting the formulation in 10% trehalose at about 0.1 mg/ml mRNA concentration and then measuring the size on Malvern zetasizer. […]
PARAMETER: PDI
Enter the number alone.

// known answers, use as guide
Suppose we examine the compound CC(C)CCCCOC(=O)CCCCCCC(=O)OCC(COP(=O)(O)OCCN(C)C)OC(=O)CCCCCCC(=O)OCCCCC(C)C (stereo not drawn) ; what PDI value has been reported?
0.146

So what's the measured PDI for this one? CCCCCCCCC(CCCCCCCC)OC(=O)CCCCCCC(=O)OCC(COP(=O)(O)OCC[N+](C)(C)C)OC(=O)CCCCCCC(=O)OC(CCCCCCCC)CCCCCCCC (stereo not drawn)
0.111

Endpoint output: PDI of CCCCCCCCC(CCCCCCCC)C(=O)OCCCCCC(=O)OCC(COP(=O)(O)OCCN(C)C)OC(=O)CCCCCOC(=O)C(CCCCCCCC)CCCCCCCC (stereo not drawn) . Value?
0.022

Which PDI value belongs to CCCCCCCCC(CCCCC)COC(=O)CCC(=O)OCC(COP(=O)(O)OCCN)OC(=O)CCC(=O)OCC(CCCCC)CCCCCCCC (stereo not drawn) [Compound 4] ?
0.112

// lookup PDI for CCCCCCCCC(CCCCCCCC)OC(=O)CCCCCCC(=O)OCC(COP(=O)(O)OCCN(C)C)OC(=O)CCCCCCC(=O)OC(CCCCCCCC)CCCCCCCC (stereo not drawn)
0.132

Return reported PDI; argument: CC(C)CCCCOC(=O)CCCCCCC(=O)OCC(COP(=O)(O)OCCN)OC(=O)CCCCCCC(=O)OCCCCC(C)C (stereo not drawn)
0.124

Entry under review: CCCCCCCCC(CCCCC)COC(=O)CCC(=O)OCC(COP(=O)(O)OCCN)OC(=O)CCC(=O)OCC(CCCCC)CCCCCCCC (stereo not drawn) [Compound 5] . Reported PDI?
0.108

So what's the measured PDI for this one? CCCCCCCCC(CCCCCCCC)C(=O)OCCCCCCC(=O)OCC(COP(=O)(O)OCCN(C)C)OC(=O)CCCCCCOC(=O)C(CCCCCCCC)CCCCCCCC (stereo not drawn)
0.104

Given CCCCCCCCC(CCCCCCCC)OC(=O)CCCCCCC(=O)OC[C@H](COP(=O)(O)OCCN(C)C)OC(=O)CCCCCCC(=O)OC(CCCCCCCC)CCCCCCCC , state its recorded PDI.
0.067

Look up PDI for this compound: CCCCCCCCOC(=O)CCCCCCCC(=O)OCC(COP(=O)(O)OCCN(C)C)OC(=O)CCCCCCCC(=O)OCCCCCCCC (stereo not drawn)
0.111

New cases:
Sample CCCCCCCCCC(CCCCCCCCC)C(=O)OCC(COP(=O)(O)OCCN(C)C)OC(=O)C(CCCCCCCCC)CCCCCCCCC (stereo not drawn) — what was its PDI?
0.113

Item CCCCCCCCC(CCCCCCCC)OC(=O)CCCCCC(=O)OCC(COP(=O)(O)OCCN(C)C)OC(=O)CCCCCC(=O)OC(CCCCCCCC)CCCCCCCC (stereo not drawn) has what recorded PDI?
0.087

What measured PDI goes with CCCCCCCCC(CCCCCCCC)OC(=O)CCCCCCC(=O)OC[C@@H](COP(=O)(O)OCCN(C)C)OC(=O)CCCCCCC(=O)OC(CCCCCCCC)CCCCCCCC ?
0.127

Which PDI is reported for this compound? CCCCCCCCCC(CCCCCCCCC)C(=O)OCC(COP(=O)(O)OCCN)OC(=O)C(CCCCCCCCC)CCCCCCCCC (stereo not drawn)
0.101

What value of PDI has been reported for the following compound? CCCCCCCCC(CCCCCCCC)OC(=O)CCCCCCC(=O)OCC(COP(=O)(O)OCCN(C)CCCO)OC(=O)CCCCCCC(=O)OC(CCCCCCCC)CCCCCCCC (stereo not drawn)
0.108

====

- EXPERIMENT_DESCRIPTION: Dynamic light scattering of lipid nanoparticles (size, PDI)
- Assay type: physicochemical
- COND: LNP with cationic lipid CL-C
Reported Size values are given for each entry in this list.
Record the value in nm, omitting the unit from your answer.

Given the compound CCCCCCCCC(CCCCCCCC)OC(=O)CCCCCCC(=O)OC[C@@H](COP(=O)(O)OCCN(C)C)OC(=O)CCCCCCC(=O)OC(CCCCCCCC)CCCCCCCC [Compound 13] , what is its reported Size?
98.0

Further cases:
Returns the measured Size for the input compound. Input: CCCCCCCCC(CCCCCCCC)OC(=O)CCCCCCCC(=O)OCC(COP(=O)(O)OCCN(C)C)OC(=O)CCCCCCCC(=O)OC(CCCCCCCC)CCCCCCCC (stereo not shown) [Compound 16]
102.7

What Size value was documented for this compound, CCCCCCCCC(CCCCCCCC)OC(=O)CCCCCCC(=O)OCC(COP(=O)(O)OCCN(C)CCCO)OC(=O)CCCCCCC(=O)OC(CCCCCCCC)CCCCCCCC (stereo not shown) [Compound 27] ?
97.0

Entry CCCCCCCCC(CCCCC)COC(=O)CCC(=O)OCC(COP(=O)(O)OCCN)OC(=O)CCC(=O)OCC(CCCCC)CCCCCCCC (stereo not shown) [Compound 5] : reported Size = ?
97.9

====

# EE per entry
- EXPERIMENT_DESCRIPTION: mRNA encapsulation efficiency of lipid nanoparticles
- Type: physicochemical
- COND: LNP with cationic lipid CL-C
Output spec: scalar in %, unitless text.

Solved entries (count: 2):
For the compound CCCCCCCCC(CCCCCCCC)OC(=O)CCCCCC(=O)OCC(COP(=O)(O)OCCN(C)C)OC(=O)CCCCCC(=O)OC(CCCCCCCC)CCCCCCCC (stereo not drawn) [Compound 15] , what EE is on record?
91

If you can, please state the reported EE value of CCCCCCCCCC(CCCCCCCCC)C(=O)OCC(COP(=O)(O)OCCN)OC(=O)C(CCCCCCCCC)CCCCCCCCC (stereo not drawn) [Compound 3] .
88

Let us move to another entry and its EE.
Recorded EE for CCCCCCCCC(CCCCCCCC)OC(=O)CCCCCCC(=O)OCC(COP(=O)(O)OCCN(C)C)OC(=O)CCCCCCC(=O)OC(CCCCCCCC)CCCCCCCC (stereo not drawn) [Compound 12] , please?
90

====

- EXPERIMENT_DESCRIPTION: mRNA encapsulation efficiency of lipid nanoparticles
- Type: physicochemical
- COND: LNP with cationic lipid CL-B
// values below are reported EE
Dear colleague, please return just the value in %, with no unit written.

// known answers, use as guide
Suppose we examine the compound CCCCCCCCC(CCCCCCCC)OC(=O)CCCCCCC(=O)OCC(COP(=O)(O)OCC[N+](C)(C)C)OC(=O)CCCCCCC(=O)OC(CCCCCCCC)CCCCCCCC (stereo not drawn) [Compound 24] ; what EE value has been reported?
87

Which EE value is on record for CCCCCCCCC(CCCCC)COC(=O)CCC(=O)OCC(COP(=O)(O)OCCN)OC(=O)CCC(=O)OCC(CCCCC)CCCCCCCC (stereo not drawn) [Compound 5] ?
90

Can you look up the measured EE of CCCCCCCCOC(=O)CCCCCCCC(=O)OCC(COP(=O)(O)OCCN(C)C)OC(=O)CCCCCCCC(=O)OCCCCCCCC (stereo not drawn) [Compound 7] for me?
92

Look at this compound and give its reported EE. CCCCCCCCC(CCCCCCCC)C(=O)OCCCCCC(=O)OCC(COP(=O)(O)OCCN(C)C)OC(=O)CCCCCOC(=O)C(CCCCCCCC)CCCCCCCC (stereo not drawn) [Compound 17]
81

So what does the record say about EE for CCCCCCCCCC(CCCCCCCCC)C(=O)OCC(COP(=O)(O)OCCN)OC(=O)C(CCCCCCCCC)CCCCCCCCC (stereo not drawn) [Compound 3] ?
25

Can you share its EE? I mean this compound: CCCCCCCCC(CCCCCCCC)OC(=O)CCCCCCC(=O)OC[C@@H](COP(=O)(O)OCCN(C)C)OC(=O)CCCCCCC(=O)OC(CCCCCCCC)CCCCCCCC [Compound 13]
96

***
Form field: reported EE of CCCCCCCCC(CCCCCCCC)OC(=O)CCCCCC(=O)OCC(COP(=O)(O)OCCN(C)C)OC(=O)CCCCCC(=O)OC(CCCCCCCC)CCCCCCCC (stereo not drawn) [Compound 15]
94

====

- Test system: hEPO
- EXPERIMENT_DESCRIPTION: IM EPO expression of LNPs containing new helper lipids (hEPO in serum by ELISA)
- Type: in vivo, female BALB/cJ mice
- COND: CL-A LNP; single IM injection; serum 24 hours post injection
- Excerpt: Lipid nanoparticles were formulated containing the four lipid components shown below at a ratio of 40:30:28.5:1.5, complexed with a hEPO messenger RNA. • Cationic lipid, 40 mol % • Phospholipid (PEA) helper lipid, 30 mol % • Cholesterol, 28.5 mol % • DMG-PEG-2K (1,2-dimyristoyl-rac-glycero-3-methoxypolyethyleneglycol), 1.5 mol % The cationic lipid component of each formulation was selected from the compounds in the table below: […]
// reported 24-h EPO for each item listed
// note: answer is a bare numeric in ng/mL

Tell me reported 24-h EPO for CCCCCCCCOC(=O)CCCCCCCC(=O)OC(COC(=O)CCCCCCC(=O)OC(CCCCCCCC)CCCCCCCC)COP(=O)(O)OCCN(C)C (stereo not drawn) , tested with hEPO.
11.25

Short answer please: 24-h EPO, hEPO, entry CCCCCCCC/C=C\CCCCCCCC(=O)OC[C@H](COP(=O)(O)OCCN)OC(=O)CCCCCCC/C=C\CCCCCCCC [DOPE, dioleoylphosphatidylethanolamine, reference compound]
19.128

Consider the additional molecule presented here.
Param readout = 24-h EPO; param system = hEPO; param query = CCCCCCCCC(CCCCCCCC)OC(=O)CCCCCCC(=O)OCC(COP(=O)(O)OCCN(C)C)OC(=O)CCCCCCC(=O)OC(CCCCCCCC)CCCCCCCC (stereo not drawn) ; response: value
19.526
